Data origin: the supplement of paper PMC6555819

# System: THRa homodimer (NR concentration 90 nM)
# procedure.details: PBM binding z-score (relative to random genomic background probes); higher = stronger binding; sequences stand for … in GC…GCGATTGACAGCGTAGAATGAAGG
Decision: PBM binding z-score compared against 0.7; not below it gives class 1, below it gives class 0.

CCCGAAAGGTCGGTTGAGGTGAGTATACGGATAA :: class 1

Is PBM binding z-score for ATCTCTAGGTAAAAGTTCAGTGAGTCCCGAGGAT at or above 0.7?
class 0

---

# System: RXRa homodimer (NR concentration 180 nM)
# procedure.details: PBM binding z-score (relative to random genomic background probes); higher = stronger binding; sequences stand for … in GC…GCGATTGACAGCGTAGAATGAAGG
measured.property: PBM binding z-score
One number for each entry.

Worked cases, answers included:
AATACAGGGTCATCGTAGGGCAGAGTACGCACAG :: 7.22
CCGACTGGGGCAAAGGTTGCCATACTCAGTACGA :: 1.32
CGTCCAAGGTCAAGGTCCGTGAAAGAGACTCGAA :: 5.96
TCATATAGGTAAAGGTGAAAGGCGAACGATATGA :: 2.24

I have 2 sequences here; please give me PBM binding z-score for each one.
1. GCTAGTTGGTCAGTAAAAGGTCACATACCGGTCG
2. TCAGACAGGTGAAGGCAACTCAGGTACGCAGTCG

1. 4.95
2. 0.955
